Origin of the recorded values: paper PMC10537356

# assayProtocol: Pharmacokinetic study of 15 LJF components in plasma of RSV-infected mice after oral LJF extract (UHPLC-QQQ MS)
# Format: in vivo
# conditionSummary: mouse, plasma, po, 12 g/kg, RSV mice plasma, oral LJF extract 12.0 g/kg, n = 6; read-out: AUC(0–t)
observationType: AUC(0-t) (ng·h/mL)

{"compound": "O=C(C=Cc1ccc(O)c(O)c1)OC1CC(O)(C(=O)O)CC(OC(=O)C=Cc2ccc(O)c(O)c2)C1O (stereo not drawn) [Isochlorogenic acid A]", "unitTag": "ng·h/mL", "quantitativeReadout": 1070}
{"compound": "O=C(C=Cc1ccc(O)c(O)c1)OC1C(O)CC(O)(C(=O)O)CC1O (stereo not drawn) [Cryptochlorogenic acid]", "unitTag": "ng·h/mL", "quantitativeReadout": 1260}
{"compound": "O=c1cc(-c2ccc(O)c(O)c2)oc2cc(O)cc(O)c12 [Luteolin]", "unitTag": "ng·h/mL", "quantitativeReadout": 20.9}
{"compound": "C[C@@H]1[C@H]2[C@H](O[C@@H]3O[C@H](CO)[C@@H](O)[C@H](O)[C@H]3O)OC=C(C(=O)O)[C@H]2C[C@@H]1O [Loganic acid]", "unitTag": "ng·h/mL", "quantitativeReadout": 84.9}
{"compound": "O=C(/C=C/c1ccc(O)c(O)c1)O[C@@H]1C[C@](O)(C(=O)O)C[C@@H](O)[C@H]1O [Chlorogenic acid]", "unitTag": "ng·h/mL", "quantitativeReadout": 5190}
{"compound": "O=C(C=Cc1ccc(O)c(O)c1)OC1CC(O)(C(=O)O)CC(O)C1OC(=O)C=Cc1ccc(O)c(O)c1 (stereo not drawn) [Isochlorogenic acid C]", "unitTag": "ng·h/mL", "quantitativeReadout": 926}

1 = C=C[C@H]1[C@H](O[C@@H]2O[C@H](CO)[C@@H](O)[C@H](O)[C@H]2O)OC=C2C(=O)OCC[C@]21O [Swertiamarin]
2 = C=C[C@H]1[C@H](O[C@@H]2O[C@H](CO)[C@@H](O)[C@H](O)[C@H]2O)OC=C2C(=O)OC(O)C[C@H]21 (stereo partly drawn) [Secologanic acid]
3 = O=C(O)/C=C/c1ccc(O)c(O)c1 [Caffeic acid]
Q: Sort ascending by AUC(0-t). Please list the labels in the order you were asked to rank them.
Result: 3, 2, 1

----------
# assayProtocol: Pharmacokinetic study of 15 LJF components in plasma of RSV-infected mice after oral LJF extract (UHPLC-QQQ MS)
# Format: in vivo
# conditionSummary: mouse; RSV mice plasma, oral LJF extract 12.0 g/kg, n = 6; read-out: Tmax
observationType: Tmax (h)

{"compound": "C[C@@H]1[C@H]2[C@H](O[C@@H]3O[C@H](CO)[C@@H](O)[C@H](O)[C@H]3O)OC=C(C(=O)O)[C@H]2C[C@@H]1O", "unitTag": "h", "Tmax": 0.5}
{"compound": "O=C(C=Cc1ccc(O)c(O)c1)OC1CC(O)(C(=O)O)CC(OC(=O)C=Cc2ccc(O)c(O)c2)C1O (stereo not drawn)", "unitTag": "h", "Tmax": 2}
{"compound": "C=C[C@H]1[C@H](O[C@@H]2O[C@H](CO)[C@@H](O)[C@H](O)[C@H]2O)OC=C(C(=O)OC)[C@H]1CC(=O)O", "unitTag": "h", "Tmax": 2}

----------
# assayProtocol: Pharmacokinetic study of 15 LJF components in plasma of RSV-infected mice after oral LJF extract (UHPLC-QQQ MS)
# Assay type: in vivo
# conditionSummary: mouse, in vivo, po, 12 g/kg, RSV mice plasma, oral LJF extract 12.0 g/kg, n = 6; read-out: AUC(0–t)
observationType: AUC(0-t) (ng·h/mL)
Kindly provide the numeric value in ng·h/mL only, without the unit symbol.

Q: Name the recorded AUC(0-t) for C[C@@H]1O[C@@H](OC[C@H]2O[C@@H](Oc3c(-c4ccc(O)c(O)c4)oc4cc(O)cc(O)c4c3=O)[C@H](O)[C@@H](O)[C@@H]2O)[C@H](O)[C@H](O)[C@H]1O .
Result: 31.3

----------
# assayProtocol: Pharmacokinetic study of 15 LJF components in plasma of RSV-infected mice after oral LJF extract (UHPLC-QQQ MS)
# Assay type: in vivo
# conditionSummary: mouse, plasma, po, 12 g/kg, RSV mice plasma, oral LJF extract 12.0 g/kg, n = 6; read-out: AUC(0–∞)
observationType: AUC(0-inf) (ng·h/mL)

{"compound": "O=C(C=Cc1ccc(O)c(O)c1)OC1CC(O)(C(=O)O)CC(O)C1OC(=O)C=Cc1ccc(O)c(O)c1 (stereo not shown) [Isochlorogenic acid C]", "AUC(0-inf) (ng·h/mL)": 1450}
{"compound": "O=C(C=Cc1ccc(O)c(O)c1)OC1C(O)CC(O)(C(=O)O)CC1O (stereo not shown) [Cryptochlorogenic acid]", "AUC(0-inf) (ng·h/mL)": 1320}
{"compound": "C=C[C@H]1[C@H](O[C@@H]2O[C@H](CO)[C@@H](O)[C@H](O)[C@H]2O)OC=C2C(=O)OC(O)C[C@H]21 (stereo partly shown) [Secologanic acid]", "AUC(0-inf) (ng·h/mL)": 13500}
{"compound": "C=C[C@H]1[C@H](O[C@@H]2O[C@H](CO)[C@@H](O)[C@H](O)[C@H]2O)OC=C(C(=O)OC)[C@H]1CC(=O)O [Secoxyloganin]", "AUC(0-inf) (ng·h/mL)": 27700}
{"compound": "C=C[C@H]1[C@H](O[C@@H]2O[C@H](CO)[C@@H](O)[C@H](O)[C@H]2O)OC=C2C(=O)OCC[C@]21O [Swertiamarin]", "AUC(0-inf) (ng·h/mL)": 22900}

P = O=C(C=Cc1ccc(O)c(O)c1)OC1CC(O)(C(=O)O)CC(OC(=O)C=Cc2ccc(O)c(O)c2)C1O (stereo not shown) [Isochlorogenic acid A]
Q = O=C(/C=C/c1ccc(O)c(O)c1)O[C@@H]1C[C@](O)(C(=O)O)C[C@@H](O)[C@H]1O [Chlorogenic acid]
Q: Could you point out whether the larger AUC(0-inf) belongs to P or to Q ? Pick one and reply with its label.
Result: Q

----------
# assayProtocol: Pharmacokinetic study of 15 LJF components in plasma of RSV-infected mice after oral LJF extract (UHPLC-QQQ MS)
# Type: in vivo
# conditionSummary: mouse, plasma, po, 12 g/kg, RSV mice plasma, oral LJF extract 12.0 g/kg, n = 6; read-out: AUC(0–∞)
observationType: AUC(0-inf) (ng·h/mL)

1 = O=C(O)/C=C/c1ccc(O)c(O)c1 [Caffeic acid]
2 = O=c1cc(-c2ccc(O)c(O)c2)oc2cc(O)cc(O)c12 [Luteolin]
Q: Could you point out whether the larger AUC(0-inf) belongs to 1 or to 2 ? Pick one and reply with its label.
Result: 1

----------
# assayProtocol: Pharmacokinetic study of 15 LJF components in plasma of RSV-infected mice after oral LJF extract (UHPLC-QQQ MS)
# Type: in vivo
# conditionSummary: mouse, in vivo, po, 12 g/kg, Cmax
observationType: Cmax (ng/mL)
Kindly provide the numeric value in ng/mL only, without the unit symbol.

Q: Name the recorded Cmax for C=C[C@H]1[C@H](O[C@@H]2O[C@H](CO)[C@@H](O)[C@H](O)[C@H]2O)OC=C2C(=O)OCC[C@H]21 [Sweroside] .
Result: 4630

----------
# assayProtocol: Pharmacokinetic study of 15 LJF components in plasma of RSV-infected mice after oral LJF extract (UHPLC-QQQ MS)
# Assay type: in vivo
# conditionSummary: mouse, plasma, po, 12 g/kg, RSV mice plasma, oral LJF extract 12.0 g/kg, n = 6; read-out: T1/2 (converted)
observationType: half-life (h)

{"molecule": "C=C[C@H]1[C@H](O[C@@H]2O[C@H](CO)[C@@H](O)[C@H](O)[C@H]2O)OC=C2C(=O)OCC[C@]21O [Swertiamarin]", "half-life [h]": 5.15}
{"molecule": "O=C(/C=C/c1ccc(O)c(O)c1)O[C@@H]1C[C@](O)(C(=O)O)C[C@@H](O)[C@H]1O [Chlorogenic acid]", "half-life [h]": 26.1}

P = C=C[C@H]1[C@H](O[C@@H]2O[C@H](CO)[C@@H](O)[C@H](O)[C@H]2O)OC=C(C(=O)OC)[C@H]1CC(=O)O [Secoxyloganin]
Q = O=C(C=Cc1ccc(O)c(O)c1)OC1CC(O)(C(=O)O)CC(OC(=O)C=Cc2ccc(O)c(O)c2)C1O (stereo not shown) [Isochlorogenic acid A]
Q: Could you point out whether the larger half-life belongs to P or to Q ? Pick one and reply with its label.
Result: Q

----------
# assayProtocol: Pharmacokinetic study of 15 LJF components in plasma of RSV-infected mice after oral LJF extract (UHPLC-QQQ MS)
# Type: in vivo
# conditionSummary: mouse, in vivo, po, 12 g/kg, AUC(0–t)
observationType: AUC(0-t) (ng·h/mL)
Kindly provide the numeric value in ng·h/mL only, without the unit symbol.

Q: Name the recorded AUC(0-t) for C=C[C@H]1[C@H](O[C@@H]2O[C@H](CO)[C@@H](O)[C@H](O)[C@H]2O)OC=C2C(=O)OCC[C@H]21 [Sweroside] .
Result: 14200
